- ASSAY: RP, Thermo Scientific Acclaim RSLC 120 C18, 100 × 2.1 mm, 2.2 µm, 30 °C, 0.2 mL/min, estimated dead time 1.1 min; A: 90% water + 10% methanol + 0.01% formic acid + 5 mM ammonium formate, pH 3.61; B: methanol + 0.01% formic acid + 5 mM ammonium formate, pH 3.61; gradient (min/%B) 0/1 1/1 2/39 13/99.9 15/99.9 15.1/1 20.1/1
- EXPERIMENTAL_PARAMETERS: stereoisomer not certain
Strictly below 9 min in LC retention time: t. Otherwise: f.

IN: Please state whether LC retention time is below 9 min for CC(C1=C(CCN(C)C)Cc2ccccc21)c1ccccn1 (stereo unspecified)
OUT: t

IN: Please state whether LC retention time is below 9 min for COP(=S)(OC)Oc1ccc(C#N)cc1
OUT: t

IN: Please state whether LC retention time is below 9 min for Nc1ncnc2c1ncn2Cc1c(F)cccc1Cl
OUT: t

IN: Please state whether LC retention time is below 9 min for CC(C(=O)O)N(C(=O)c1ccccc1)c1ccc(F)c(Cl)c1 (stereo unspecified)
OUT: t

IN: Please state whether LC retention time is below 9 min for CCOC(=O)c1ccc(N)cc1
OUT: t

IN: Please state whether LC retention time is below 9 min for COC1CC(OC2C(C)OC(OC3C(C)=CCC4CC(CC5(CCC(C)C(C(C)C)O5)O4)OC(=O)C4C=C(C)C(O)C5OCC(=CC=CC3C)C45O)CC2OC)OC(C)C1O (stereo unspecified)
OUT: f

IN: Please state whether LC retention time is below 9 min for OC(c1ccc(Cl)cc1)(c1cncnc1)c1ccccc1Cl (stereo unspecified)
OUT: f

IN: Please state whether LC retention time is below 9 min for CCc1nn(C)c(C(=O)NCc2ccc(Oc3ccc(C)cc3)cc2)c1Cl
OUT: f

IN: Please state whether LC retention time is below 9 min for CCCCCn1nc(C(=O)NC(C(N)=O)C(C)(C)C)c2ccccc21 (stereo unspecified)
OUT: f

IN: Please state whether LC retention time is below 9 min for CON=C(C(=O)OC)c1ccccc1COc1ccccc1C
OUT: f

IN: Please state whether LC retention time is below 9 min for CCCCN1CCCCC1C(=O)Nc1c(C)cccc1C (stereo unspecified)
OUT: t

IN: Please state whether LC retention time is below 9 min for CCOC(=O)CCN(SN(C)C(=O)Oc1cccc2c1OC(C)(C)C2)C(C)C
OUT: f

IN: Please state whether LC retention time is below 9 min for CCCCCCC(C)(C)c1ccc(C2CCCC(O)C2)c(O)c1 (stereo unspecified)
OUT: f

IN: Please state whether LC retention time is below 9 min for CCOP(=S)(NC(C)CC)Oc1cc(C)ccc1[N+](=O)[O-] (stereo unspecified)
OUT: f

IN: Please state whether LC retention time is below 9 min for CCCCc1c(C)nc(NCC)nc1OS(=O)(=O)N(C)C [Bupirimate]
OUT: f

IN: Please state whether LC retention time is below 9 min for S=C1N=CN=C2N=CN=C12
OUT: t

IN: Please state whether LC retention time is below 9 min for COP(=S)(OC)Oc1ccc([N+](=O)[O-])cc1Cl
OUT: f

IN: Please state whether LC retention time is below 9 min for O=C(Oc1cccc2cccnc12)c1cn(CC2CCCCC2)c2ccccc12
OUT: f

IN: Please state whether LC retention time is below 9 min for Nc1ccn(C2OC(CO)C(O)C2O)c(=O)n1 (stereo unspecified)
OUT: t

IN: Please state whether LC retention time is below 9 min for O=C(c1ccc(F)c2ccccc12)c1cn(CCCCCF)c2ccccc12
OUT: f

IN: Please state whether LC retention time is below 9 min for CCOP(=S)(OCC)Oc1nc(Cl)n(C(C)C)n1
OUT: f

IN: Please state whether LC retention time is below 9 min for C=C(Cl)CSC(=S)N(CC)CC [Vegadex (Sulfallate)]
OUT: f

IN: Please state whether LC retention time is below 9 min for CCOP(=O)(OCC)SCSCC [Phorate-oxon]
OUT: t

IN: Please state whether LC retention time is below 9 min for COC(=O)Nc1nc2ccc(Sc3ccccc3)cc2[nH]1
OUT: f

IN: Please state whether LC retention time is below 9 min for CNC(=O)CSP(=O)(OC)OC [Omethoate]
OUT: t

IN: Please state whether LC retention time is below 9 min for Cc1onc(-c2ccccc2)c1-c1ccc(S(N)(=O)=O)cc1
OUT: t

IN: Please state whether LC retention time is below 9 min for CON=C(Cc1cccnc1)c1ccc(Cl)cc1Cl
OUT: f

IN: Please state whether LC retention time is below 9 min for CCc1cccc(C)c1NC(=O)CS(=O)(=O)O
OUT: t

IN: Please state whether LC retention time is below 9 min for CCCCn1cc(C(=O)c2cccc3ccccc23)c2c(O)cccc21
OUT: f

IN: Please state whether LC retention time is below 9 min for Cc1ccc(NC(=O)N(C)C)cc1Cl
OUT: t

IN: Please state whether LC retention time is below 9 min for COC1CC(OC2C(C)OC(OC3C(C)=CCC4CC(CC5(C=CC(C)C(C(C)C)O5)O4)OC(=O)C4C=C(C)C(O)C5OCC(=CC=CC3C)C45O)CC2OC)OC(C)C1O (stereo unspecified)
OUT: f

IN: Please state whether LC retention time is below 9 min for CC1(C)C(C(=O)c2cn(CCCC(F)(F)F)c3ccccc23)C1(C)C
OUT: f

IN: Please state whether LC retention time is below 9 min for CC(C)(COCc1cccc(Oc2ccccc2)c1)c1ccc(OC(F)(F)Br)cc1
OUT: f

IN: Please state whether LC retention time is below 9 min for CCCCc1oc2ccc(NS(C)(=O)=O)cc2c1C(=O)c1ccc(OCCCN(CCCC)CCCC)cc1
OUT: f

IN: Please state whether LC retention time is below 9 min for NC(=O)N1c2ccccc2C(O)C(O)c2ccccc21 (stereo unspecified) [Carbamazepine-10.11-dihydro-10.11 dihydroxy]
OUT: t
